# assay-summary: self-splicing fitness, log relative to wild type (ln ratio); higher = more splicing; Tetrahymena group I intron in knt gene, E. coli kanamycin selection, DiMSum; sequences stand for … in CUCUCU…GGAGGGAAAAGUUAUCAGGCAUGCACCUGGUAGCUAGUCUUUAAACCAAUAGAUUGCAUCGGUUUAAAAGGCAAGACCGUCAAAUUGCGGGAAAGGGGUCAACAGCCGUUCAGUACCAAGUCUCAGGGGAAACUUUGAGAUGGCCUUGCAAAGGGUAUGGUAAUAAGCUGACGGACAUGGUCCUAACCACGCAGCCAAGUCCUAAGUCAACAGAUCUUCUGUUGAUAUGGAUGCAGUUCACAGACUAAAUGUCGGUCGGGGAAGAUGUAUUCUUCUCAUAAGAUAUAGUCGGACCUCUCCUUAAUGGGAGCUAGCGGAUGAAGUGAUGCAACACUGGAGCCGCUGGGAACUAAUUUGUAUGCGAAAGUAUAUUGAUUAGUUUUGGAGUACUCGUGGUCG;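 also: selection with 25 µg/mL kanamycin versus none on LB agar overnight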
# condition: 37 °C
This listing pairs sequences with measured self-splicing fitness (ln).
measurement-name: self-splicing fitness (ln)

[[record]]
construct_sequence = "AGUUAGCAAUAUUACGUCAA"
measurement_name = "self-splicing fitness (ln)"
reported_measurement = -0.718

[[record]]
construct_sequence = "UCCGAGCAAUAUUACGUACG"
measurement_name = "self-splicing fitness (ln)"
reported_measurement = -2.34

[[record]]
construct_sequence = "AUGGAGCAAUAUUACGAAUG"
measurement_name = "self-splicing fitness (ln)"
reported_measurement = -2.35

[[record]]
construct_sequence = "ACUGAGCAAUAUUACGGGAG"
measurement_name = "self-splicing fitness (ln)"
reported_measurement = -2.74

[[record]]
construct_sequence = "GGCAAGCAAUAUUACGUAAA"
measurement_name = "self-splicing fitness (ln)"
reported_measurement = -0.267


###

# assay-summary: self-splicing fitness, log relative to wild type (ln ratio); higher = more splicing; Tetrahymena group I intron in knt gene, E. coli kanamycin selection, DiMSum; sequences stand for … in CUCUCU…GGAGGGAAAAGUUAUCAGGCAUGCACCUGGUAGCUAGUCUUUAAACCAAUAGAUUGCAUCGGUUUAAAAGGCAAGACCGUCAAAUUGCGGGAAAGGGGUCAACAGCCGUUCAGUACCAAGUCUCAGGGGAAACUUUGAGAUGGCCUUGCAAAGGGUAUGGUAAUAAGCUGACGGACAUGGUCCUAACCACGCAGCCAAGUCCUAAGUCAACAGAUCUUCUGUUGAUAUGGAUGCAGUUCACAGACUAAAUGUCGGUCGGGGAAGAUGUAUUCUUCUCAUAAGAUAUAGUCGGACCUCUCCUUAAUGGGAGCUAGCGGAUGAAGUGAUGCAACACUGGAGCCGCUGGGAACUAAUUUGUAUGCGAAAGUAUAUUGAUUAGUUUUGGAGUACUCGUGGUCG
# condition: 30 °C
Recorded self-splicing fitness (ln) determines the group label, using group 1: < -3; group 2: ≥ -3 and < -2; group 3: ≥ -2

[[record]]
construct_sequence = "GAACAGCAAUAUUACGCAGA"
answer_label = "group 2"

[[record]]
construct_sequence = "ACGUAGCAAUAUUACGCUCC"
answer_label = "group 2"

[[record]]
construct_sequence = "UAUCAGCAAUAUUACGAGCU"
answer_label = "group 2"

[[record]]
construct_sequence = "CCAAAGCAAUAUUACGGCAA"
answer_label = "group 1"

[[record]]
construct_sequence = "UCUCAGCAAUAUUACGACGU"
answer_label = "group 3"

[[record]]
construct_sequence = "ACACAGCAAUAUUACGAGGG"
answer_label = "group 1"

[[record]]
construct_sequence = "UGAUAGCAAUAUUACGAUCG"
answer_label = "group 3"

[[record]]
construct_sequence = "CGACAGCAAUAUUACGGGGU"
answer_label = "group 1"

[[record]]
construct_sequence = "GAGAAGCAAUAUUACGUCGA"
answer_label = "group 3"

[[record]]
construct_sequence = "AAGAAGCAAUAUUACGAAAG"
answer_label = "group 1"

[[record]]
construct_sequence = "GAGAAGCAAUAUUACGGACU"
answer_label = "group 3"

[[record]]
construct_sequence = "CAAUAGCAAUAUUACGAACC"
answer_label = "group 2"

[[record]]
construct_sequence = "GGGCAGCAAUAUUACGAACU"
answer_label = "group 3"

[[record]]
construct_sequence = "AAGAAGCAAUAUUACGCCUU"
answer_label = "group 1"

[[record]]
construct_sequence = "GCACAGCAAUAUUACGGCAA"
answer_label = "group 3"

[[record]]
construct_sequence = "CACGAGCAAUAUUACGCCAG"
answer_label = "group 1"

[[record]]
construct_sequence = "GAAUAGCAAUAUUACGCAGU"
answer_label = "group 2"

[[record]]
construct_sequence = "CGUCAGCAAUAUUACGUUGC"
answer_label = "group 1"

[[record]]
construct_sequence = "AUGGAGCAAUAUUACGAGAU"
answer_label = "group 1"

[[record]]
construct_sequence = "UGUAAGCAAUAUUACGGCCG"
answer_label = "group 3"

[[record]]
construct_sequence = "GAGAAGCAAUAUUACGCUAC"
answer_label = "group 1"

[[record]]
construct_sequence = "GCGCAGCAAUAUUACGGCAG"
answer_label = "group 1"

[[record]]
construct_sequence = "CUAAAGCAAUAUUACGGGAU"
answer_label = "group 3"

[[record]]
construct_sequence = "UCUCAGCAAUAUUACGGGCU"
answer_label = "group 3"

[[record]]
construct_sequence = "CACAAGCAAUAUUACGCACC"
answer_label = "group 1"

[[record]]
construct_sequence = "GGGGAGCAAUAUUACGACGC"
answer_label = "group 3"

[[record]]
construct_sequence = "UGCAAGCAAUAUUACGACUG"
answer_label = "group 3"

[[record]]
construct_sequence = "UCACAGCAAUAUUACGAGCU"
answer_label = "group 1"

[[record]]
construct_sequence = "AGUUAGCAAUAUUACGGUAC"
answer_label = "group 3"

[[record]]
construct_sequence = "GGACAGCAAUAUUACGUCCA"
answer_label = "group 3"

[[record]]
construct_sequence = "GACUAGCAAUAUUACGUUUG"
answer_label = "group 2"

[[record]]
construct_sequence = "UUUUAGCAAUAUUACGUAGA"
answer_label = "group 2"

[[record]]
construct_sequence = "CUCGAGCAAUAUUACGACUC"
answer_label = "group 1"

[[record]]
construct_sequence = "AGUUAGCAAUAUUACGAUGU"
answer_label = "group 3"

[[record]]
construct_sequence = "AAGGAGCAAUAUUACGGCCC"
answer_label = "group 2"

[[record]]
construct_sequence = "CAUGAGCAAUAUUACGUUGG"
answer_label = "group 2"

[[record]]
construct_sequence = "UGUGAGCAAUAUUACGGGUC"
answer_label = "group 1"

[[record]]
construct_sequence = "CGAAAGCAAUAUUACGAUCU"
answer_label = "group 3"

[[record]]
construct_sequence = "CGCGAGCAAUAUUACGAGAU"
answer_label = "group 2"

[[record]]
construct_sequence = "ACACAGCAAUAUUACGCCAG"
answer_label = "group 2"

[[record]]
construct_sequence = "ACACAGCAAUAUUACGGCGA"
answer_label = "group 3"

[[record]]
construct_sequence = "AGCUAGCAAUAUUACGUUAA"
answer_label = "group 2"

[[record]]
construct_sequence = "CUGUAGCAAUAUUACGCUUU"
answer_label = "group 1"

[[record]]
construct_sequence = "GCGUAGCAAUAUUACGUGGC"
answer_label = "group 1"

[[record]]
construct_sequence = "UAACAGCAAUAUUACGACGA"
answer_label = "group 3"

[[record]]
construct_sequence = "GUUAAGCAAUAUUACGAUCU"
answer_label = "group 3"

[[record]]
construct_sequence = "AUCAAGCAAUAUUACGGAUC"
answer_label = "group 1"

[[record]]
construct_sequence = "AACAAGCAAUAUUACGGCGC"
answer_label = "group 3"

[[record]]
construct_sequence = "GUGAAGCAAUAUUACGCGUC"
answer_label = "group 2"

[[record]]
construct_sequence = "GAAAAGCAAUAUUACGAUCG"
answer_label = "group 3"

[[record]]
construct_sequence = "UUGAAGCAAUAUUACGCAAA"
answer_label = "group 3"

[[record]]
construct_sequence = "CCAUAGCAAUAUUACGCCGG"
answer_label = "group 2"

[[record]]
construct_sequence = "ACUCAGCAAUAUUACGUUCG"
answer_label = "group 3"

[[record]]
construct_sequence = "GGUCAGCAAUAUUACGUGCC"
answer_label = "group 2"

[[record]]
construct_sequence = "ACCCAGCAAUAUUACGUUCC"
answer_label = "group 2"

[[record]]
construct_sequence = "GCUGAGCAAUAUUACGUGGU"
answer_label = "group 1"

